Test: in vivo
Conditions: rat, plasma, 20 mg/kg
resultType: Cmax (ng/mL)
Numeric only. Scale: ng/mL

Q: Identify Cmax associated with the compound O=C1c2cccc3cccc(c23)C(=O)N1CCNCCCNCCN1C(=O)c2cccc3cccc(c23)C1=O [Free Elinafide, Elinafide]
Result: 1.4

----------
Tested on: HT-29 human colorectal adenocarcinoma cells
Test: In vitro IC50 cytotoxicity, Alamar Blue cell viability
Assay type: cell-based
Details: Homo sapiens, 72 h, Table 7, read-out: 72 hr Tx (IC50)
resultType: IC50 (nM)
Numeric only. Scale: nM

Q: Check HT-29 human colorectal adenocarcinoma cells data and give IC50 for CN(C)CCN1C(=O)c2cccc3cc4ccccc4c(c23)C1=O [Azonifide Free, Azonifide] .
Result: 386
